# Test system: Protein cereblon/Androgen receptor (Homo sapiens), P10275+Q96SW2 [UNDEFINED MUTATION]
# Sequence (P10275 whole entry, looked up, change not shown, canonical isoform): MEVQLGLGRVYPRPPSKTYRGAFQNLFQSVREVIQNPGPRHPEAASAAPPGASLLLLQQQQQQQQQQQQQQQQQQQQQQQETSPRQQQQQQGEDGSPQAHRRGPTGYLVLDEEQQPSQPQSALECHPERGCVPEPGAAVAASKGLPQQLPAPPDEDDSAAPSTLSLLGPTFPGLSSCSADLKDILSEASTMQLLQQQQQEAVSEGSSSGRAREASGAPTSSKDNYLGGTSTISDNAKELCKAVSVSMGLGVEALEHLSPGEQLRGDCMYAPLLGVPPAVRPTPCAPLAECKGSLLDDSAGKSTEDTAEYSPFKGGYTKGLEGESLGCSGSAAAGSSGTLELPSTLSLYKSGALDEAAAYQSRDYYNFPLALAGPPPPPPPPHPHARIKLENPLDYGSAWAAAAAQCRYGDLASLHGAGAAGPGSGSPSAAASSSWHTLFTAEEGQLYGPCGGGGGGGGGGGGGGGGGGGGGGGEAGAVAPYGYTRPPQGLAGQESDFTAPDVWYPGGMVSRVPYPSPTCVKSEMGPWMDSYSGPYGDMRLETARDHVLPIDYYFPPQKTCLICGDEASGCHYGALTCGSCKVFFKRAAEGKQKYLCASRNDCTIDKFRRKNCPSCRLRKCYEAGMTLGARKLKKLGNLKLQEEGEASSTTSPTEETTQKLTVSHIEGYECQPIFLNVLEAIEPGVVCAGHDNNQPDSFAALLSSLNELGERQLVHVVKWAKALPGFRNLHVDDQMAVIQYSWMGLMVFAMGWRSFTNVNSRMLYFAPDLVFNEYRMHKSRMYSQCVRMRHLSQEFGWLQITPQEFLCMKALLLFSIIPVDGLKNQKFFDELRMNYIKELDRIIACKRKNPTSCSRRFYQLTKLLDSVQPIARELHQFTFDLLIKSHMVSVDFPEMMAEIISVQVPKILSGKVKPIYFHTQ
# Sequence (Q96SW2 whole entry, looked up, change not shown, canonical isoform): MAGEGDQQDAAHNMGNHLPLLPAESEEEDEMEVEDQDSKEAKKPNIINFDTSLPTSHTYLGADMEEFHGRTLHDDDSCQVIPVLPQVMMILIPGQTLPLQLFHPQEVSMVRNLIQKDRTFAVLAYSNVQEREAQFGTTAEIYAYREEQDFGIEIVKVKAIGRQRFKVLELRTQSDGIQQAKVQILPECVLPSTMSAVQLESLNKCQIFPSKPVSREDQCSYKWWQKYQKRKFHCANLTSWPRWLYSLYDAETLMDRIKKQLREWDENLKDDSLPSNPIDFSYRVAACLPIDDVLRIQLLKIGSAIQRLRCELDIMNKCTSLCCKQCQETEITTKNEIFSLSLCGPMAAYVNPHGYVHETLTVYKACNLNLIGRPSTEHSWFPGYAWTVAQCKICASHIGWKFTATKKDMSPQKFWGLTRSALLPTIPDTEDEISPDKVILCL
# test.name: PROTAC activity at CRBN/Androgen receptor splice variant 7 in human 22Rv1 cells assessed as induction of AR-V7 degradation at 0.01 uM incubated for 24 hrs by Western blot analysis relative to control
# Type: cell-based
Kindly supply the reported Activity values for the records listed here.

Input: Name the reported Activity value associated with the compound CC1(COc2ccc(C(C)(C)c3cc(Cl)c(OCC4CCN(C(=O)CCCCCNc5ccc6c(c5)C(=O)N(C5CCC(=O)NC5=O)C6=O)CC4)c(C#N)c3)cc2)COC1 (stereo unspecified)
Output: 68.6%

Input: Entry to check: CC(C)(c1ccc(OCC2COC2)cc1)c1cc(Cl)c(OCC2CCN(C(=O)CCCCCNc3ccc4c(c3)C(=O)N(C3CCC(=O)NC3=O)C4=O)CC2)c(C#N)c1 (stereo unspecified)
Output: 64.2%

Input: Then CC(C)(c1ccc(OCc2ccccc2)cc1)c1cc(Cl)c(OCC2CCN(C(=O)CCCCCNc3ccc4c(c3)C(=O)N(C3CCC(=O)NC3=O)C4=O)CC2)c(C#N)c1 (stereo unspecified) ?
Output: < 5%

Input: And the next one, CC(C)(c1ccc(OCC2CN(S(C)(=O)=O)C2)cc1)c1cc(Cl)c(OCC2CCN(C(=O)CCCCCNc3ccc4c(c3)C(=O)N(C3CCC(=O)NC3=O)C4=O)CC2)c(C#N)c1 (stereo unspecified) ?
Output: 73.9%

Input: COc1ccc(C(C)(C)c2cc(Cl)c(OCC3CCN(C(=O)CCCCCNc4cc5c(cc4F)C(=O)N(C4CCC(=O)NC4=O)C5=O)CC3)c(C#N)c2)cc1 (stereo unspecified) , same question.
Output: < 5%

Input: Follow-up item: CC(C)(c1ccc(OCCCCl)cc1)c1ccc(OCC2CCN(C(=O)CCCCCNc3ccc4c(c3)C(=O)N(C3CCC(=O)NC3=O)C4=O)CC2)cc1 (stereo unspecified)
Output: < 5%

Entry source: ChEMBL document CHEMBL6177998
